The values you see were collected from the RNAGym collection of RNA variant scans (doi:10.7554/elife.80360).

B1: HDV Ribozyme (parent)
chain: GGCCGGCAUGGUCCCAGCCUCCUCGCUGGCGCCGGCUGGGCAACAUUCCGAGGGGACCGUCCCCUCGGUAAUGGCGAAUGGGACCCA

# Variants of: B1
# EXPERIMENT DESCRIPTION: self-cleavage, relative activity (ratio to wild type); higher = more cleavage; co-transcriptional
Class met: self-cleavage at least 0.2. Class not met: self-cleavage below 0.2.

SEQUENCE INPUT | LABEL CLASS
GUCCGGCAUGGUCCCAGCCUUCUCGCUGGCGCCGGCUGGGCAACAUUCCGAGGGGACCGUCCCCUCGGUAAUGGCGAAUGGGACCCA [G2U C21U] | not met

# check: self-cleavage of GGCCGGCAUGGUCCCAGCCUCCUCGCUGGCGCCGGCUGGUCAACAUUCCGAGGGGACCUUCCCCUCGGUAAUGGCGAAUGGGACCCA [G40U G59U] is greater than or equal to 0.2
met

Would you say GGCCGGCAUGGUCCCAGCCUCCUCGCUGGCGCCGUCUGGGCAACAUUCCGAGGGGACCGUCCCCUCGGUAAUGGCGAAUGGGACCAA [G35U C86A] shows self-cleavage at minimum 0.2?
met

Determine whether this variant has self-cleavage no lower than 0.2: CGCCGGCAUGGUCCCAGCCUCCUCGCUGGCGCCGUCUGGGCAACAUUCCGAGGGGACCGUCCCCUCGGUAAUGGCGAAUGGGACCCA [G1C G35U]
not met

Textbook exercise: given the entry GGCCGGCAUGGUCCCAGGCUCCUCGCUGGCGCCGGCUGGGCAACAUUCCGAGGGGACCGUCCCCUCGGUAAUGGAGAAUGGGACCCA [C18G C75A] , state whether its self-cleavage is greater than or equal to 0.2.
not met

Hi, just wondering whether GGCCGGCAUGGUCCCAGCCUCCUCGCUGGCGCCGGCUGGGCAACAUUCUGAGGGGACCGUCCCCUCGGUAAUGGCGAAUGGGACCCG [C49U A87G] shows self-cleavage of 0.2 or higher.
met

Determine whether this variant has self-cleavage no lower than 0.2: GACCGGCAUGGUCCCAGCCUCCUCGCUGGCGCCGGCUGGGCAACAUUCCGAGGGGACCGUCCCCUCGGUGAUGGCGAAUGGGACCCA [G2A A70G]
not met

Say whether GGCCGGCAUGGUCCCAGCCUCCUCGCUGGCGCCGGCUGGGCAACAUUCCGAGGGGACCGUCCCCUCGAUAAUGGCGAAAGGGACCCA [G68A U79A] shows self-cleavage of 0.2 or more.
met
